Hello, the source for this data is ChEMBL document CHEMBL4387722, in case you need it.

TESTED_ON: Tyrosine-protein phosphatase non-receptor type 5 (Homo sapiens, UniProt P54829)
Sequence (P54829 whole entry): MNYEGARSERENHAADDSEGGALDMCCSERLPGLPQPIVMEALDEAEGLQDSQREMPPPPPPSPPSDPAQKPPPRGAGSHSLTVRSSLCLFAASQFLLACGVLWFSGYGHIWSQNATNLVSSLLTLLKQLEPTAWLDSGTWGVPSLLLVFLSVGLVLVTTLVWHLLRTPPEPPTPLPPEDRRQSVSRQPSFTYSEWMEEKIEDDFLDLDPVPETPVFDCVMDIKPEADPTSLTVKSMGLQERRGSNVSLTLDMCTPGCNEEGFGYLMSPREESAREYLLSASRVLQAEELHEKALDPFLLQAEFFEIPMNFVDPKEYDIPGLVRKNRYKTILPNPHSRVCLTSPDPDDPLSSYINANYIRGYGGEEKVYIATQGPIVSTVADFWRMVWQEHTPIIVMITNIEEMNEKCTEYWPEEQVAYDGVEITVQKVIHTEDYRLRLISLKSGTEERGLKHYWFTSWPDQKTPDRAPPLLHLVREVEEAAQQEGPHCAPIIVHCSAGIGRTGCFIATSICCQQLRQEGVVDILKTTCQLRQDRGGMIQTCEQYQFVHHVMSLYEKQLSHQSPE
TEST_SUMMARY: Inhibition of human PTPN5 expressed in Escherichia coli Rosetta 2 (DE3) using pNPP as substrate after 45 mins by spectrophotometric method
pIC50: −log10 of the molar value.

[
  {
    "SMILES_DATA": "NCc1ccc(S(=O)(=O)Nc2ccc3oc(-c4ccc(NS(=O)(=O)c5ccc(Cl)s5)cc4)nc3c2)cc1",
    "VALUE_COMPARATOR": "=",
    "pIC50": 4.21
  },
  {
    "SMILES_DATA": "CS(=O)(=O)Nc1ccc(-c2nc3cc(NS(C)(=O)=O)ccc3o2)cc1",
    "VALUE_COMPARATOR": "<",
    "pIC50": 4.00
  },
  {
    "SMILES_DATA": "Cc1ccc(S(=O)(=O)Nc2ccc(-c3nc4ccc(NS(=O)(=O)c5ccc(C)cc5)cc4[nH]3)cc2)cc1",
    "VALUE_COMPARATOR": "=",
    "pIC50": 4.89
  },
  {
    "SMILES_DATA": "O=S(=O)(Nc1ccc2oc(-c3ccccc3)nc2c1)c1ccc(Cl)c(Cl)c1",
    "VALUE_COMPARATOR": "=",
    "pIC50": 4.60
  },
  {
    "SMILES_DATA": "Cc1cccc(S(=O)(=O)Nc2ccc(-c3nc4ccccc4o3)cc2)c1",
    "VALUE_COMPARATOR": "=",
    "pIC50": 4.55
  },
  {
    "SMILES_DATA": "O=S(=O)(Nc1ccc(-c2nc3cc(NS(=O)(=O)c4ccc5nsnc5c4)ccc3o2)cc1)c1ccc2nsnc2c1",
    "VALUE_COMPARATOR": "=",
    "pIC50": 4.96
  },
  {
    "SMILES_DATA": "O=S(=O)(Nc1ccc(-c2nc3cc(NS(=O)(=O)c4ccc5ccccc5c4)ccc3o2)cc1)c1ccc2ccccc2c1",
    "VALUE_COMPARATOR": "=",
    "pIC50": 5.21
  },
  {
    "SMILES_DATA": "O=C(O)c1ccccc1S(=O)(=O)Nc1ccc(-c2nc3cc(NS(=O)(=O)c4ccccc4C(=O)O)ccc3o2)cc1",
    "VALUE_COMPARATOR": "<",
    "pIC50": 4.00
  },
  {
    "SMILES_DATA": "O=S(=O)(Nc1ccc(-c2nc3ccccc3o2)cc1)c1cccs1",
    "VALUE_COMPARATOR": "=",
    "pIC50": 4.03
  }
]

====

TESTED_ON: HSP60/HSP10 (Homo sapiens, UniProt P10809)
Sequence (P10809 whole entry): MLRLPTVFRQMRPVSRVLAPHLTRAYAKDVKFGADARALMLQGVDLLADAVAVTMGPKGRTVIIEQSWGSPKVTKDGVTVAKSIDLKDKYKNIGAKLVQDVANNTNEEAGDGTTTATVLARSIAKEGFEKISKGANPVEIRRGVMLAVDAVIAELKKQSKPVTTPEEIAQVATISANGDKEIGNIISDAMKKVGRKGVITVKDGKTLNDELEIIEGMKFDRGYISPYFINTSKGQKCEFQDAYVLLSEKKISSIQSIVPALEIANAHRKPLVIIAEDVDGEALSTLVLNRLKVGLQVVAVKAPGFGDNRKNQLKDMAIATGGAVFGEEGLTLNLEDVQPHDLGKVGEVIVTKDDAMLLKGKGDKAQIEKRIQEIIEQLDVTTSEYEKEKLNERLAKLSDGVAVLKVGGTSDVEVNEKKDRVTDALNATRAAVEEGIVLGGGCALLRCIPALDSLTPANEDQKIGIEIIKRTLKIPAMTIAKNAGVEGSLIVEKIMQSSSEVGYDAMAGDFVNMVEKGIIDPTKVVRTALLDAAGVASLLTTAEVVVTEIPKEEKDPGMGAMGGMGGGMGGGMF
Sequence (P61604 whole entry, further chain): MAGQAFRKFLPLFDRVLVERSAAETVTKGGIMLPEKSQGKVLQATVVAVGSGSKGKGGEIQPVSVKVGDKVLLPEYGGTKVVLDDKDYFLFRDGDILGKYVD
pIC50: −log10 of the molar value.
The following compounds are shown together with reported pIC50 values.

[
  {
    "SMILES_DATA": "O=S(=O)(Nc1ccc(-c2nc3ccccc3o2)cc1)c1ccc(O)cc1",
    "VALUE_COMPARATOR": "=",
    "pIC50": 4.11
  },
  {
    "SMILES_DATA": "COc1ccc(Cl)cc1S(=O)(=O)Nc1ccc(-c2nc3ccccc3o2)cc1",
    "VALUE_COMPARATOR": "<",
    "pIC50": 4.00
  },
  {
    "SMILES_DATA": "NCc1ccc(S(=O)(=O)Nc2ccc(-c3nc4cc(NS(=O)(=O)c5ccc(Cl)s5)ccc4o3)cc2)cc1",
    "VALUE_COMPARATOR": "=",
    "pIC50": 4.32
  },
  {
    "SMILES_DATA": "O=S(=O)(Nc1ccc2oc(-c3ccc(NS(=O)(=O)c4ccc(Cl)s4)cc3)nc2c1)c1cccs1",
    "VALUE_COMPARATOR": "=",
    "pIC50": 5.04
  },
  {
    "SMILES_DATA": "O=S(=O)(Nc1ccc(-c2nc3ccccc3o2)cc1)c1ccc(Cl)c(Cl)c1",
    "VALUE_COMPARATOR": "=",
    "pIC50": 4.60
  }
]
